assay: solubility in phosphate buffer with/without 0.9% NaCl, pH serially lowered with acetic acid, concentration remaining in solution; type: physicochemical; details: pH 8.5, PBS without NaCl, pH 8.5; read-out: Solubility pH 8.5
Ends that are not written are not given here.
Please go through the items and note down their solubility.
Answers are plain numbers, in µg/mL.

Solved entries:
sequenceText	measuredMetric	unitAbbreviation	valueReported
GEDLQQEDGPTGEPQQEDDEFL [SEQ ID NO: 29]	solubility	µg/mL	762
DSQVIVEEVSIFPVEEQQEVPPD [SEQ ID NO: 32]	solubility	µg/mL	424
NEGIEITEVTAPPEDNPVEDSQ [SEQ ID NO: 31]	solubility	µg/mL	854

The recorded solubility for DMEEMMSEQENPDSSEPVVEDE [SEQ ID NO: 30] is 730

====

experiment: solubility in phosphate buffer with/without 0.9% NaCl, pH serially lowered with acetic acid, concentration remaining in solution; assay type: physicochemical; conditions: pH 6, PBS with 0.9% NaCl, pH 6; read-out: Solubility pH 6
Ends that are not written are not given here.
measuredMetric: solubility (µg/mL)
Answers are plain numbers, in µg/mL.

Solved entries:
sequenceText	unitAbbreviation	valueReported
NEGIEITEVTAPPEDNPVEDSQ [SEQ ID NO: 31]	µg/mL	833
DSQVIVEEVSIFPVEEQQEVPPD [SEQ ID NO: 32]	µg/mL	411
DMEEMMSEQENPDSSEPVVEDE [SEQ ID NO: 30]	µg/mL	529

Next item in the queue.
The recorded solubility for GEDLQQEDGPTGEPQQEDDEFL [SEQ ID NO: 29] is 695

====

assay: solubility in phosphate buffer with/without 0.9% NaCl, pH serially lowered with acetic acid, concentration remaining in solution; type: physicochemical; settings: pH 8, PBS without NaCl, pH 8; read-out: Solubility pH 8
Ends that are not written are not given here.
measuredMetric: solubility (mg/mL)
Numbers only, in mg/mL.

sequenceText	unitAbbreviation	solubility
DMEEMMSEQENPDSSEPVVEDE [SEQ ID NO: 30]	mg/mL	0.72
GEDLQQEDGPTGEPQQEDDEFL [SEQ ID NO: 29]	mg/mL	0.756
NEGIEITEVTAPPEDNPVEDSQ [SEQ ID NO: 31]	mg/mL	0.847

Next item in the queue.
The recorded solubility for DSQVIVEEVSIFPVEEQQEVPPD [SEQ ID NO: 32] is 0.421

====

Please go through the items and note down their solubility.
assay: solubility in phosphate buffer with/without 0.9% NaCl, pH serially lowered with acetic acid, concentration remaining in solution; type: physicochemical; settings: pH 4, PBS without NaCl, pH 4; read-out: Solubility pH 4
Ends that are not written are not given here.
Numbers only, in µg/mL.

Solved entries:
sequenceText	unitAbbreviation	valueReported
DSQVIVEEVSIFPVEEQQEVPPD [SEQ ID NO: 32]	µg/mL	387
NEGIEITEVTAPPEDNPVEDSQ [SEQ ID NO: 31]	µg/mL	777
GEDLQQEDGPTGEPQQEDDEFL [SEQ ID NO: 29]	µg/mL	731

Next item in the queue.
The recorded solubility for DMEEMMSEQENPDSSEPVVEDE [SEQ ID NO: 30] is 647

====

experiment: solubility by visual examination in ultrapure water, PBS and DMSO; format: physicochemical; conditions: ultrapure water; read-out: concentration range of measured solubility, Ultrapure water
Ends that are not written are not given here.
measuredMetric: solubility

The recorded solubility for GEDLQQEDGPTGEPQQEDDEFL [SEQ ID NO: 29] is ≤ 10000 µg/mL
